- Measurement target: 1-phosphatidylinositol 4,5-bisphosphate phosphodiesterase gamma-1 (Homo sapiens) (UniProt P19174)
- Sequence (P19174 whole entry, looked up): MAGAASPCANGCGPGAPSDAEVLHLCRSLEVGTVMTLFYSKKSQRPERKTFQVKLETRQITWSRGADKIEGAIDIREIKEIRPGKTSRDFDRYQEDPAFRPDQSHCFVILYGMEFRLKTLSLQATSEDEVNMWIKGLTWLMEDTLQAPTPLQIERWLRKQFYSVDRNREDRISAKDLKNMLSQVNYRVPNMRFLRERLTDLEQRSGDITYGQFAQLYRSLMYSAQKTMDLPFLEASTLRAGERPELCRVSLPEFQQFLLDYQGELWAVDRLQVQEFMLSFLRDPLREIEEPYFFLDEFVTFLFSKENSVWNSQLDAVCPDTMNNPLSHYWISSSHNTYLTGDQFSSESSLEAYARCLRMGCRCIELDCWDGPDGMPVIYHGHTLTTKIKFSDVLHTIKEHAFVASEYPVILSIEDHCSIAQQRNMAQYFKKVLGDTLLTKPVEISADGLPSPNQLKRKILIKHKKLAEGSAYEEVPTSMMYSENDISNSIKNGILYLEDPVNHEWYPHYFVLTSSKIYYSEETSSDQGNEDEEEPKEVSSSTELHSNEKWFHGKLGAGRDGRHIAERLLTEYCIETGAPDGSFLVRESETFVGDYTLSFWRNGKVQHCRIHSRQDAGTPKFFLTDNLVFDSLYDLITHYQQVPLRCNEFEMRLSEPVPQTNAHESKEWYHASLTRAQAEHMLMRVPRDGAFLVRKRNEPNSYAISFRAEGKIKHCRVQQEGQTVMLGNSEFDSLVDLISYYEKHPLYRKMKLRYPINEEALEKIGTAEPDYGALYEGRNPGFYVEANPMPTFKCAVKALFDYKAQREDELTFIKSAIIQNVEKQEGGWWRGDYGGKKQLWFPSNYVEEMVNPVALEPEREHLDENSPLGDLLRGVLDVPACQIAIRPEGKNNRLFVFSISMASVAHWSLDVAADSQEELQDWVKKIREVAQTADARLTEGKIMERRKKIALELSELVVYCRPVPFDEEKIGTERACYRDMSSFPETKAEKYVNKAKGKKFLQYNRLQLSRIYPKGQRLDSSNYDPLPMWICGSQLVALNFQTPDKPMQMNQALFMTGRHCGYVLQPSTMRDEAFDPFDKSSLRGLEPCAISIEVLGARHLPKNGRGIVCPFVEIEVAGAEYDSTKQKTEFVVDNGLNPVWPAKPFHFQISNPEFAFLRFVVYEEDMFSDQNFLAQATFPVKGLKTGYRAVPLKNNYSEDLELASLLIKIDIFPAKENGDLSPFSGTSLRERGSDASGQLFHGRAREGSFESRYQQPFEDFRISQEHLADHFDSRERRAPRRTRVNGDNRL
- Experimental details: PLC-gamma1 enzyme inhibitors, primary screen, biochemical, fluorescence, purified enzyme (AID 720700)
- Measurement conditions: purified PLC-gamma1, fluorogenic substrate, at 12.2 µM, active compounds read high
The campaign covered roughly 370,000 compounds. About 3,100 (0.84%) were called active. What follows is part of a selection rich in actives, with near analogues and random picks from the rest.
Measured inhibition, listed per entry.
Measured quantity: inhibition (%)

molecule=CCCCn1c(SCC(=O)N2CCCC2=O)nc2cc(S(N)(=O)=O)ccc21 measured_quantity=inhibition numeric_readout=9.56
molecule="CC(=O)C1=C(O)C(=O)N(c2ccc(Br)cc2)C1c1ccc([N+](=O)[O-])cc1 (configuration not stated)" measured_quantity=inhibition numeric_readout=2.17
molecule="COc1ccc(C2C(C(C)=O)=C(O)C(=O)N2CCc2c[nH]c3ccccc23)cc1 (configuration not stated)" measured_quantity=inhibition numeric_readout=0.47
molecule=CCn1c(SCC(=O)N2CCCC2=O)nc2ccccc21 measured_quantity=inhibition numeric_readout=3.16
molecule=CCCC[C@H](C(=O)N(CC)c1ccccc1)[C@@H](O)c1ccc2ccccc2c1 measured_quantity=inhibition numeric_readout=2.96
molecule=CCOC(=O)Nc1ccc2c(c1)N(C(=O)CCCl)c1ccccc1[S@]2=O measured_quantity=inhibition numeric_readout=-0.45
molecule=CC(C)(C)OC(=O)NCCc1ccccc1/C=C/S(=O)(=O)NCc1ccc(F)cc1 measured_quantity=inhibition numeric_readout=-0.15
molecule=COc1ccc(C(=O)c2c(C)c(CCC#N)n3ccccc23)c(OC)c1 measured_quantity=inhibition numeric_readout=-3.69
molecule=CCOC(=O)[C@@]12CN(C(=O)OC(C)(C)C)CC=C1N(Cc1ccc(OC)cc1)C(=O)[C@H]2CC(=O)NCc1ccc(OC)c(OC)c1 measured_quantity=inhibition numeric_readout=2.04
molecule="CC(NCc1ccco1)C(=O)N1CCCCC1 (configuration not stated)" measured_quantity=inhibition numeric_readout=-2.37
molecule="C=C(C)C#CC(Cc1ccccc1)N(CC1CC1)/C(N)=N/C(=O)OCc1ccccc1 (configuration not stated)" measured_quantity=inhibition numeric_readout=-163
molecule=CCOc1ccc(-n2c(SCC(=O)Nc3cc(C)c(NC(=O)c4ccccc4)cc3OC)nnc2-c2cccs2)cc1 measured_quantity=inhibition numeric_readout=-10.9
molecule=O=C(COC(=O)Cc1ccccc1F)NCCc1ccccc1 measured_quantity=inhibition numeric_readout=-0.55
molecule="O=C(c1ccccc1)c1ccc(-c2ccccc2C(=O)NC2CCCCN(Cc3ccc(Cl)cc3)C2=O)cc1 (configuration not stated)" measured_quantity=inhibition numeric_readout=1.5
molecule=O=C(Nc1cccc([N+](=O)[O-])c1)Nn1cnnc1 measured_quantity=inhibition numeric_readout=10.4
molecule=COc1ccc(CCNC(=O)COC(=O)Cc2ccccc2F)cc1 measured_quantity=inhibition numeric_readout=10.7
molecule=COC(=O)[C@]12C[C@H](CC(=O)NCCc3ccccc3OC)C(=O)N(Cc3ccco3)C1=C[C@H](C(C)C)O[C@@H]2C1CC1 measured_quantity=inhibition numeric_readout=-0.19
